Exercise: state measured fold (fold change of native GLP-2), GLP-2 receptor for each of the sequences provided.
- measured.on: human GLP-2 receptor (Homo sapiens, UniProt O95838)
- Construct: host or cells: COS-7 (transient, calcium phosphate; pCMV-Script vector)
- Sequence (O95838 whole entry): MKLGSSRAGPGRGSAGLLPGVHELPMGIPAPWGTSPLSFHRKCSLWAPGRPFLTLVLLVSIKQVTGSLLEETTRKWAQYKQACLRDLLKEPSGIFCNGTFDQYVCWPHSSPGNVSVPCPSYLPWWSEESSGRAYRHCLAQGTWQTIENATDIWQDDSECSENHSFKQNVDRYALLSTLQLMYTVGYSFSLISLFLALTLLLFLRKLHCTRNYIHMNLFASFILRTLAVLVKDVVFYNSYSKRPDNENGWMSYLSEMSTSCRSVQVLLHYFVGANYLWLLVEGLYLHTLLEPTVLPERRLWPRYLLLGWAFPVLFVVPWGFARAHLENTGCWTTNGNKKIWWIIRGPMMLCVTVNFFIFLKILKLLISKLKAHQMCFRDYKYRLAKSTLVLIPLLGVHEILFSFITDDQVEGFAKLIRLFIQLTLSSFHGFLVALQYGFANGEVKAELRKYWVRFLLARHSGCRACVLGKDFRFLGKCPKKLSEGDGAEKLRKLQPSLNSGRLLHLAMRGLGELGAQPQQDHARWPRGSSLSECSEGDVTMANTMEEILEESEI
- experiment.notes: cAMP accumulation assay (HitHunter cAMP XS) in transiently transfected COS-7 cells expressing the human GLP-2 receptor
- Assay type: cell-based
- test.context: Table 2; EC50 relative to native GLP-2
Ends that are not written are not given here.

Quick one: fold (fold change of native GLP-2), GLP-2 receptor of HADGTFISDYSTIKDNLAARDFINWLIQTKITK [Co-agonist 25] ?
2.9 fold

Quick one: fold (fold change of native GLP-2), GLP-2 receptor of HADGTFISDYSTILDNLKARDFINWLIQTKITK [Co-agonist 27] ?
0.47 fold

Quick one: fold (fold change of native GLP-2), GLP-2 receptor of HADGTFISDYSTILDKLAARDFINWLIQTKITK [Co-agonist 26] ?
0.26 fold

Quick one: fold (fold change of native GLP-2), GLP-2 receptor of HADGTFISDYSKILDNLAARDFINWLIQTKITK [Co-agonist 24] ?
0.62 fold
